The reported numbers originate from patent US7119207B2.

Where a name gives a salt, the structure may show the parent alone.

- compound: "COc1cc2c(cc1CN[C@H]1CCCN(C(=O)C(F)(F)F)[C@H]1c1ccccc1)N(C)C(=O)CC2 (as salt: hydrochloride) [Example 10]"
  melting point: "222 to 224 °C (dec.)"
- compound: "CCC1CCC(NCc2cc3c(cc2OC)C2CC2C(=O)N3C)C(c2ccccc2)N1 (centres unmarked) [Example 85]"
  melting point: "231 to 234 °C (dec.)"
- compound: "CCN1C(=O)CCc2cc(OC)c(CNC3CCCNC3c3ccccc3)cc21 (centres unmarked) (as salt: hydrochloride) [Example 2]"
  melting point: "253 to 255 °C"
- compound: "COc1cc2c(c(F)c1CNC1CCCNC1c1ccccc1)N(C)C(=O)CC2(C)C (centres unmarked) (as salt: hydrochloride) [Example 5]"
  melting point: "> 270 °C"
- compound: "COc1cc2c(cc1CN[C@H]1CCCN(Cc3n[nH]c(=O)[nH]3)[C@H]1c1ccccc1)C(C)(C)C(=O)N2C [Example 18]"
  melting point: "> 250 °C (dec.)"
